target: BRD2 BD2 WT (Homo sapiens, UniProt P25440); test: competitive AlphaLISA; type: binding
Sequence (P25440 344-455): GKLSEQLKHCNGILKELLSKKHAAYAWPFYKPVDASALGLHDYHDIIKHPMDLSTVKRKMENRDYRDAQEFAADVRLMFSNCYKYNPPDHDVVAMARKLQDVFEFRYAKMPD
pIC50: −log10 of the molar value.
Give rule met when the value for pIC50 is at least 5. Give rule not met when it is less.

Answered examples (5):
{"compound": "CCNC(=O)[C@H](CC)[C@@H]1N=C(c2ccc(Cl)cc2)c2ccc(OC)cc2-n2c(C)nnc21 (relative stereo)", "category.label": "rule not met"}
{"compound": "CCC[C@@H](C(=O)OC)[C@@H]1N=C(c2ccc(Cl)cc2)c2cc(OC)ccc2-n2c(C)nnc21 (relative stereo)", "category.label": "rule not met"}
{"compound": "CCNC(=O)[C@H](C)[C@@H]1N=C(c2ccc(Cl)cc2)c2ccc(OC)cc2-n2c(C)nnc21 (relative stereo)", "category.label": "rule not met"}
{"compound": "CC[C@@H](C(=O)OC(C)(C)C)[C@@H]1N=C(c2ccc(Cl)cc2)c2cc(OC)ccc2-n2c(C)nnc21", "category.label": "rule met"}
{"compound": "C=CC[C@@H](C(=O)OC)[C@@H]1N=C(c2ccc(Cl)cc2)c2ccc(OC)cc2-n2c(C)nnc21 (relative stereo)", "category.label": "rule not met"}

Req: hey, is pIC50 for this one >= 5? COC(=O)CC1N=C(c2ccc(Cl)cc2)c2cc(OC)ccc2-n2c(C)nnc21 (stereo not drawn)
Resp: rule met

Req: hey, is pIC50 for this one >= 5? COC(=O)CC1N=C(c2ccc(Cl)cc2)c2ccc(OC)cc2-n2c(C)nnc21 (stereo not drawn)
Resp: rule met

Req: hey, is pIC50 for this one >= 5? "C=CC[C@@H](C(=O)OC(C)(C)C)[C@@H]1N=C(c2ccc(Cl)cc2)c2ccc(OC)cc2-n2c(C)nnc21"
Resp: rule met

Req: hey, is pIC50 for this one >= 5? CCN(CC)C(=O)[C@H](C)[C@@H]1N=C(c2ccc(Cl)cc2)c2cc(OC)ccc2-n2c(C)nnc21 (relative stereo)
Resp: rule not met

Req: hey, is pIC50 for this one >= 5? C=CC[C@@H](C(=O)NCC)[C@@H]1N=C(c2ccc(Cl)cc2)c2cc(OC)ccc2-n2c(C)nnc21 (relative stereo)
Resp: rule not met

Req: hey, is pIC50 for this one >= 5? CC[C@@H](C(=O)N(CC)CC)[C@@H]1N=C(c2ccc(Cl)cc2)c2cc(OC)ccc2-n2c(C)nnc21 (relative stereo)
Resp: rule not met

====

target: BRD4 BD2 L/V (Homo sapiens, UniProt O60885, L387V); experiment: ITC; assay type: binding; conditions: ITC
Overview of recorded ΔH BRD4 BD2 L/V for various compounds
Answer format: numeric, kcal/mol implied, no suffix.

Sample records with ΔH BRD4 BD2 L/V:
{"compound": "C=CC[C@@H](C(=O)OC)[C@@H]1N=C(c2ccc(Cl)cc2)c2cc(OC)ccc2-n2c(C)nnc21 (racemic)", "display.unit": "kcal/mol", "ΔH BRD4 BD2 L/V": -6.4}
{"compound": "CCNC(=O)[C@H](CC)[C@@H]1N=C(c2ccc(Cl)cc2)c2cc(OC)ccc2-n2c(C)nnc21 (relative stereo)", "display.unit": "kcal/mol", "ΔH BRD4 BD2 L/V": -3.7}
{"compound": "CC[C@@H](C(=O)OC)[C@@H]1N=C(c2ccc(Cl)cc2)c2cc(OC)ccc2-n2c(C)nnc21 (relative stereo)", "display.unit": "kcal/mol", "ΔH BRD4 BD2 L/V": -7.9}

Now look at this one.
Lab note: measured ΔH BRD4 BD2 L/V of CCNC(=O)[C@H](C)[C@@H]1N=C(c2ccc(Cl)cc2)c2ccc(OC)cc2-n2c(C)nnc21 (relative stereo) was -4.4

====

molecular target: BRD2: LV/WT (Homo sapiens, UniProt P25440, L110V); assay: ITC, BRD2 tandem construct
Sequence (P25440 73-455 L110V limits assumed): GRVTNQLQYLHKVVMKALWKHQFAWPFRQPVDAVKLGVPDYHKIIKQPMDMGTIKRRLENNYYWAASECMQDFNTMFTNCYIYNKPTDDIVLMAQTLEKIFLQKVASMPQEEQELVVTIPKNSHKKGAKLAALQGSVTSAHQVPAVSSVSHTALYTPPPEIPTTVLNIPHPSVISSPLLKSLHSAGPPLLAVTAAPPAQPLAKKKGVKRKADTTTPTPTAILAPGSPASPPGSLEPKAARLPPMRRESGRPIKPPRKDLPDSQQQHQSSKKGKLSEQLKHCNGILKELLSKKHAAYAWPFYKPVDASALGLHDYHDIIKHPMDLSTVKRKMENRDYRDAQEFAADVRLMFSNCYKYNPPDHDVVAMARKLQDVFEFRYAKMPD
reported.metric: Kd (nM)
Answer format: numeric, nM implied, no suffix.

Lab note: measured Kd of CC[C@@H](C(=O)OC)[C@@H]1N=C(c2ccc(Cl)cc2)c2cc(OC)ccc2-n2c(C)nnc21 (relative stereo) [Compound 4] was 570

====

biological target: BRD4 BD2 WT (Homo sapiens, UniProt O60885); test: competitive AlphaLISA; assay type: binding
pIC50: −log10 of the molar value.
Give 1.0 when the value for pIC50 is at least 5. Give 0.0 when it is less.

Answered examples (5):
{"compound": "CCC[C@@H](C(=O)OC)[C@@H]1N=C(c2ccc(Cl)cc2)c2cc(OC)ccc2-n2c(C)nnc21 (relative stereo)", "category.label": 0.0}
{"compound": "CCNC(=O)[C@H](C)[C@@H]1N=C(c2ccc(Cl)cc2)c2ccc(OC)cc2-n2c(C)nnc21 (relative stereo)", "category.label": 0.0}
{"compound": "CC[C@@H](C(=O)OC(C)(C)C)[C@@H]1N=C(c2ccc(Cl)cc2)c2ccc(OC)cc2-n2c(C)nnc21", "category.label": 0.0}
{"compound": "CC[C@@H](C(=O)OC(C)(C)C)[C@@H]1N=C(c2ccc(Cl)cc2)c2cc(OC)ccc2-n2c(C)nnc21", "category.label": 1.0}
{"compound": "CCN(CC)C(=O)[C@H](C)[C@@H]1N=C(c2ccc(Cl)cc2)c2cc(OC)ccc2-n2c(C)nnc21 (relative stereo)", "category.label": 0.0}

Could you now look at the following compound, please?
Req: hey, is pIC50 for this one >= 5? CC[C@@H](C(=O)OC)[C@@H]1N=C(c2ccc(Cl)cc2)c2ccc(OC)cc2-n2c(C)nnc21 (racemic)
Resp: 1.0

====

target: BRD4 BD1 L/V (Homo sapiens, UniProt O60885, L94V); experiment: competitive AlphaLISA; type: binding; conditions: AlphaLISA pIC50 Value BRD4 BD1 L/V
Class field: derived from IC50; ranges lo: < 800 nM; mid: ≥ 800 nM and < 2000 nM; hi: ≥ 2000 nM

{"compound": "CC[C@@H](C(=O)OC)[C@@H]1N=C(c2ccc(Cl)cc2)c2ccc(OC)cc2-n2c(C)nnc21 (racemic)", "category.label": "lo"}
{"compound": "CC[C@@H](C(=O)OC)[C@@H]1N=C(c2ccc(Cl)cc2)c2cc(OC)ccc2-n2c(C)nnc21 (relative stereo)", "category.label": "lo"}
{"compound": "C=CC[C@@H](C(=O)OC(C)(C)C)[C@@H]1N=C(c2ccc(Cl)cc2)c2ccc(OC)cc2-n2c(C)nnc21", "category.label": "mid"}
{"compound": "CCN(CC)C(=O)[C@H](C)[C@@H]1N=C(c2ccc(Cl)cc2)c2cc(OC)ccc2-n2c(C)nnc21 (relative stereo)", "category.label": "mid"}
{"compound": "CC[C@@H](C(=O)OC(C)(C)C)[C@@H]1N=C(c2ccc(Cl)cc2)c2ccc(OC)cc2-n2c(C)nnc21", "category.label": "hi"}

Req: Pick a category. Item: C=CC[C@@H](C(=O)OC)[C@@H]1N=C(c2ccc(Cl)cc2)c2cc(OC)ccc2-n2c(C)nnc21 (racemic)
Resp: lo

Req: Pick a category. Item: COC(=O)CC1N=C(c2ccc(Cl)cc2)c2ccc(OC)cc2-n2c(C)nnc21 (stereo not drawn)
Resp: mid

Req: Pick a category. Item: CCNC(=O)[C@H](CC)[C@@H]1N=C(c2ccc(Cl)cc2)c2ccc(OC)cc2-n2c(C)nnc21 (relative stereo)
Resp: hi

Req: Pick a category. Item: CC[C@@H](C(=O)N(CC)CC)[C@@H]1N=C(c2ccc(Cl)cc2)c2cc(OC)ccc2-n2c(C)nnc21 (relative stereo)
Resp: mid

Req: Pick a category. Item: C=CC[C@@H](C(=O)NCC)[C@@H]1N=C(c2ccc(Cl)cc2)c2cc(OC)ccc2-n2c(C)nnc21 (relative stereo)
Resp: mid

Req: Pick a category. Item: C=CC[C@@H](C(=O)OC)[C@@H]1N=C(c2ccc(Cl)cc2)c2ccc(OC)cc2-n2c(C)nnc21 (relative stereo)
Resp: hi

Req: Pick a category. Item: CCNC(=O)[C@H](C)[C@@H]1N=C(c2ccc(Cl)cc2)c2ccc(OC)cc2-n2c(C)nnc21 (relative stereo)
Resp: mid

Req: Pick a category. Item: COC(=O)[C@H](C)[C@@H]1N=C(c2ccc(Cl)cc2)c2ccc(OC)cc2-n2c(C)nnc21 (racemic)
Resp: lo

Req: Pick a category. Item: CCC[C@@H](C(=O)OC)[C@@H]1N=C(c2ccc(Cl)cc2)c2cc(OC)ccc2-n2c(C)nnc21 (relative stereo)
Resp: hi

====

target: BRD4 BD1 L/V (Homo sapiens, UniProt O60885, L94V); test: competitive AlphaLISA; assay type: binding; settings: L/V minus WT; total compound concentration
reported.metric: ΔpIC50 BRD4 BD1
Form rule: numeric answer, no unit written next to it.

{"molecule": "CC[C@@H](C(=O)OC)[C@@H]1N=C(c2ccc(Cl)cc2)c2ccc(OC)cc2-n2c(C)nnc21 (relative stereo) [(2R,3S)-8]", "ΔpIC50 BRD4 BD1": 1.8}
{"molecule": "COC(=O)[C@H](C)[C@@H]1N=C(c2ccc(Cl)cc2)c2ccc(OC)cc2-n2c(C)nnc21 (racemic) [Compound 7]", "ΔpIC50 BRD4 BD1": 1.4}
{"molecule": "CC[C@@H](C(=O)OC)[C@@H]1N=C(c2ccc(Cl)cc2)c2ccc(OC)cc2-n2c(C)nnc21 (racemic) [Compound 8]", "ΔpIC50 BRD4 BD1": 1.4}

Now look at this one.
Lab note: measured ΔpIC50 BRD4 BD1 of COC(=O)[C@H](C)[C@@H]1N=C(c2ccc(Cl)cc2)c2ccc(OC)cc2-n2c(C)nnc21 [(2R,3S)-7] was 1.7
